Reported values of MIC for individual entries
- System: Escherichia coli EC14
- measurementNotes: MIC, standard agar-dilution assay
- Type: cell-based
- measurementSetup: read-out: MIC

compound	measurementUnits	qualifierSymbol	MIC
CC[C@H]1OC(=O)[C@H](C)[C@@H](O[C@H]2C[C@@](C)(OC)[C@@H](O)[C@H](C)O2)[C@H](C)[C@@H](O[C@@H]2O[C@H](C)C[C@H](N(C)C)[C@H]2O)[C@](C)(O)C[C@@H](C)[C@H](NCC2CC=CCC2)[C@H](C)[C@@H](O)[C@]1(C)O (stereo partly shown)	µg/mL	=	64
CCCCCCCN[C@@H]1[C@H](C)[C@@H](O)[C@](C)(O)[C@@H](CC)OC(=O)[C@H](C)[C@@H](O[C@H]2C[C@@](C)(OC)[C@@H](O)[C@H](C)O2)[C@H](C)[C@@H](O[C@@H]2O[C@H](C)C[C@H](N(C)C)[C@H]2O)[C@](C)(O)C[C@H]1C [Compound 7, 9-Deoxo-9-(-n-heptylamino)erythromycin]	µg/mL	=	64
CC[C@H]1OC(=O)[C@H](C)[C@@H](O[C@H]2C[C@@](C)(OC)[C@@H](O)[C@H](C)O2)[C@H](C)[C@@H](O[C@@H]2O[C@H](C)C[C@H](N(C)C)[C@H]2O)[C@](C)(O)C[C@@H](C)[C@H]2[C@H](C)[C@@H](OCN2Cc2ccccc2)[C@]1(C)O	µg/mL	>	128
CCCN[C@@H]1[C@H](C)[C@@H](O)[C@](C)(O)[C@@H](CC)OC(=O)[C@H](C)[C@@H](O[C@H]2C[C@@](C)(OC)[C@@H](O)[C@H](C)O2)[C@H](C)[C@@H](O[C@@H]2O[C@H](C)C[C@H](N(C)C)[C@H]2O)[C@](C)(O)C[C@H]1C	µg/mL	=	32
CC[C@H]1OC(=O)[C@H](C)[C@@H](O[C@H]2C[C@@](C)(OC)[C@@H](O)[C@H](C)O2)[C@H](C)[C@@H](O[C@@H]2O[C@H](C)C[C@H](N(C)C)[C@H]2O)[C@](C)(O)C[C@@H](C)[C@H](NCCC(C)C)[C@H](C)[C@@H](O)[C@]1(C)O	µg/mL	=	128
CC[C@H]1OC(=O)[C@H](C)[C@@H](O[C@H]2C[C@@](C)(OC)[C@@H](O)[C@H](C)O2)[C@H](C)[C@@H](O[C@@H]2O[C@H](C)C[C@H](N(C)C)[C@H]2O)[C@](C)(O)C[C@@H](C)[C@H](NCCOCCOC)[C@H](C)[C@@H](O)[C@]1(C)O	µg/mL	=	64
CCCCCN[C@@H]1[C@H](C)[C@@H](O)[C@](C)(O)[C@@H](CC)OC(=O)[C@H](C)[C@@H](O[C@H]2C[C@@](C)(OC)[C@@H](O)[C@H](C)O2)[C@H](C)[C@@H](O[C@@H]2O[C@H](C)C[C@H](N(C)C)[C@H]2O)[C@](C)(O)C[C@H]1C	µg/mL	=	128
